A collection of molecules and their measured pIC50
assayedSystem: p38α MAPK (Homo sapiens)
testDescription: Biochemical p38 MAPK activity assay (BAA), ELISA of ATF-2 phosphorylation
setupConditions: inhibition of phosphorylation of ATF2, N = 3; read-out: BAA p38 IC50 ± SD
Experimental: Kinase activity assays were used for identification of p38α MAPK and JNK3 inhibitors. The experimental settings and screening procedures are previously described by Goettert et al., [28]. Briefly, the ELISA assay was performed using 96-well plates (MaxiSorp, NUNC, Germany) by measuring the activity of p38α MAPK after incubation with a candidate inhibitor. […]
Keep it numeric: pIC50 is minus log10 of the concentration in mol/L.

> print(dat)
                       smilesrepresentation             assayedsystem  recordedendpoint  endpointresult
1  CC(C)Nc1cc(-c2[nH]c(SCCO)nc2-c2ccc(F)cc2)ccn1  p38α MAPK (Homo sapiens)             pIC50            8.52

Consider the additional molecule presented here.
## Task // pIC50 lookup, key: O=C(Nc1cc(Nc2ccc3c(c2)CCc2ccc(OCCN4CCOCC4)cc2C3=O)c(F)cc1F)c1ccsc1
## Result 9.30

====

assayedSystem: UniProtKB Q16539
testDescription: Biochemical p38 MAPK activity assay (BAA), ELISA of ATF-2 phosphorylation
setupConditions: read-out: BAA p38 IC50 ± SD
A collection of compounds and their measured pIC50
Keep it numeric: pIC50 is minus log10 of the concentration in mol/L.

> print(dat)
                                   compound  recordedendpoint  endpointresult
1  CC(C)C(C)Nc1cc(-c2[nH]c(SCCCO)nc2-c2ccc(F)cc2)ccn1 (centres unmarked) [LN949]             pIC50            7.93
2  O=C(Nc1cc(Nc2ccc3c(c2)CCc2ccc(OCCN4CCOCC4)cc2C3=O)c(F)cc1F)c1ccccc1 [LN1503]             pIC50            8.89
3  O=C(Nc1cc(Nc2ccc3c(c2)CCc2ccc(OCCN4CCOCC4)cc2C3=O)ccc1F)c1ccoc1 [LN1311]             pIC50            8.96

## Task // pIC50 lookup, key: CC(C)Nc1cc(-c2[nH]c(SC[C@H](O)CO)nc2-c2ccc(F)cc2)ccn1 [LN954]
## Result 8.24

## Task // pIC50 lookup, key: O=C(NCC(O)CO)c1ccc2c(c1)C(=O)c1ccc(Nc3cc(NC(=O)c4ccsc4)c(F)cc3F)cc1CC2 (centres unmarked) [LN1878]
## Result 8.72

## Task // pIC50 lookup, key: CNC(=O)c1ccc2c(c1)C(=O)c1ccc(Nc3ccc(F)cc3F)cc1CC2 [LN1496]
## Result 8.49

## Task // pIC50 lookup, key: CC(C)Sc1nc(-c2ccc(F)cc2)c(-c2ccnc(NC3CCOCC3)c2)[nH]1 [RN4296]
## Result 8.43

## Task // pIC50 lookup, key: Nc1ccccc1Nc1ccc2c(c1)CCc1ccc(OC[C@H](O)CO)cc1C2=O [LN809]
## Result 8.00

====

A collection of compounds and their measured nuc/cyt ratio at 15 nM ± SD
assayedSystem: p38 MAPK (Homo sapiens)
Construct: endogenous in cells; host or cells: U2OS-MK2-EGFP-clone-RA#2
Sequence (Q16539 whole entry): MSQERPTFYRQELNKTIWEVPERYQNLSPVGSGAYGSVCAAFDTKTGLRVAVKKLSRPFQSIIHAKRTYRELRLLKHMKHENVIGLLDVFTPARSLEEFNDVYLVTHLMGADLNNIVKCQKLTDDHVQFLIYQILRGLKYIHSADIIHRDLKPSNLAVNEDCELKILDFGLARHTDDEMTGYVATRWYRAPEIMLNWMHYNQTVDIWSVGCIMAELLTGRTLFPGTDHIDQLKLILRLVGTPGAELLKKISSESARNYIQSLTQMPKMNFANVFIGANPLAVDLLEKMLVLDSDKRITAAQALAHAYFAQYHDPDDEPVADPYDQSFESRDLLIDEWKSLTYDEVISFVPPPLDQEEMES
testDescription: MK2-EGFP translocation assay (High Content Analysis)
Assay type: cell-based
setupConditions: 15 nM compound, activated U2OS MK2-EGFP cells, N = 3

## Task // nuc/cyt ratio at 15 nM ± SD lookup, key: CNC(=O)c1ccc2c(c1)C(=O)c1ccc(Nc3ccc(F)cc3F)cc1CC2
## Result 1,088±0,0231

====

assayedSystem: p38α MAPK (Homo sapiens)
testDescription: Biochemical p38 MAPK activity assay (BAA), ELISA of ATF-2 phosphorylation
setupConditions: summary of Table 1; read-out: BAA, IC50
recordedEndpoint: pIC50
Keep it numeric: pIC50 is minus log10 of the concentration in mol/L.

## Task // pIC50 lookup, key: O=C(Nc1cc(Nc2ccc3c(c2)CCc2ccc(OCCN4CCOCC4)cc2C3=O)c(F)cc1F)c1ccsc1
## Result 8.30

====

assayedSystem: p38 MAPK (Homo sapiens)
Construct: endogenous in cells; host or cells: U2OS-MK2-EGFP-clone-RA#2
testDescription: MK2-EGFP translocation assay (High Content Analysis)
Format: cell-based
setupConditions: 15 nM compound, activated U2OS MK2-EGFP cells, N = 3
recordedEndpoint: nuc/cyt ratio at 15 nM ± SD

Would you please look over these solved cases?
> print(dat)
                                   molecule             recordedendpoint  endpointresult
1  CC(C)C(C)Nc1cc(-c2[nH]c(SCCCO)nc2-c2ccc(F)cc2)ccn1 (stereo not drawn)  nuc/cyt ratio at 15 nM ± SD    1,111±0,0012
2  CC(C)Nc1cc(-c2[nH]c(SC[C@H](O)CO)nc2-c2ccc(F)cc2)ccn1  nuc/cyt ratio at 15 nM ± SD    1,068±0,0406
3  O=C(NCC(O)CO)c1ccc2c(c1)C(=O)c1ccc(Nc3cc(NC(=O)c4ccsc4)c(F)cc3F)cc1CC2 (stereo not drawn)  nuc/cyt ratio at 15 nM ± SD    1,211±0,1416
4  CC(C)Nc1cc(-c2[nH]c(SCCO)nc2-c2ccc(F)cc2)ccn1  nuc/cyt ratio at 15 nM ± SD    1,158±0,0756
5  O=C(Nc1cc(Nc2ccc3c(c2)CCc2ccc(OCCN4CCOCC4)cc2C3=O)c(F)cc1F)c1ccsc1  nuc/cyt ratio at 15 nM ± SD    1,206±0,0326

## Task // nuc/cyt ratio at 15 nM ± SD lookup, key: CC(C)Sc1nc(-c2ccc(F)cc2)c(-c2ccnc(NC3CCOCC3)c2)[nH]1
## Result 1,288±0,2483

====

assayedSystem: p38 MAPK (Homo sapiens)
Construct: endogenous in cells; host or cells: U2OS-MK2-EGFP-clone-RA#2
testDescription: MK2-EGFP translocation assay (High Content Analysis)
Assay type: cell-based
setupConditions: 15 nM compound, activated U2OS MK2-EGFP cells, N = 3
A collection of molecules and their measured nuc/cyt ratio at 15 nM ± SD

Would you please look over these solved cases?
> print(dat)
                       smilesrepresentation            assayedsystem             recordedendpoint  endpointresult
1  O=C(Nc1cc(Nc2ccc3c(c2)CCc2ccc(OCCN4CCOCC4)cc2C3=O)ccc1F)c1ccoc1  p38 MAPK (Homo sapiens)  nuc/cyt ratio at 15 nM ± SD    1,088±0,0781
2  Nc1ccccc1Nc1ccc2c(c1)CCc1ccc(OC[C@H](O)CO)cc1C2=O  p38 MAPK (Homo sapiens)  nuc/cyt ratio at 15 nM ± SD    1,064±0,1062

Consider the additional molecule presented here.
## Task // nuc/cyt ratio at 15 nM ± SD lookup, key: O=C(Nc1cc(Nc2ccc3c(c2)CCc2ccc(OCCN4CCOCC4)cc2C3=O)c(F)cc1F)c1ccccc1
## Result 1,057±0,0332
